Reported Tm by item:
test: melting temperature; fluorescence melt of hairpins on a sequencing array, two-state fit, raised by 9.35 °C to match UV melts; conditions: sodium 0.088 M
measurement.kind: Tm (°C)

sequence.chain | measurement.units | readout.value
GCTTCGCGAAAGCGTTGC ((..(((....)))..)) | °C | 47.2
GGAGCCGAAAGGCGATCC ((((((....)))..))) | °C | 51.6
GACTCCGAAAGGAACGTC ((((((....)))..))) | °C | 36
GCACCCGGAAACGGATGC (((.(((....))).))) | °C | 51.6
GCTTTACGAAAGTATAGC (((.(((....))).))) | °C | 47
GATCAGAATGCTGATC ((((((....)))))) | °C | 47
GTGGACGGAAACGTCTGC (..((((....))))..) | °C | 49.2
GATCACGCTTGTGATC ((((((....)))))) | °C | 57.7
GATCGTTCTCACGATC ((((((....)))))) | °C | 54.8
GTACACGAAAGTGTATAC ((((((....)))..))) | °C | 43.6
GATCATCGAGATGATC ((((((....)))))) | °C | 54.2
GCTATCTCGAAAGAGAGC (((..(((....)))))) | °C | 37.2
GCACCGCGAAAGCGATGC (((.(((....))).))) | °C | 57.4
GCCTGGCGAAAGCGCGGC (((..((....))..))) | °C | 57.1
GCTCACGAAAGTGCAGC ((((((....))).))) | °C | 52
GATCGGGGGGCCGATC ((((((....)))))) | °C | 57.3

* * *

test: folding enthalpy; higher = less favourable; fluorescence melt of hairpins on a sequencing array, two-state fit; details: sodium 0.088 M

sequence.chain | folding enthalpy (kcal/mol)
GACATGCGAAAGCAAGTC (((.(((....))).))) | -25.5
GCTACCGGAAACGGCAAC (.(.(((....))).).) | -8.04
GCTTGCGAAAGCACTAGC ((((((....)))..))) | -12.7
GATCCGGGGACGGATC ((((((....)))))) | -41.6
GCTCAAGCGAAAGCTAGC (((..(((....)))))) | -14.1
GTAAGAACGAAAGTTTAC (((..(((....)))))) | -8.19

* * *

assay: melting temperature; fluorescence melt of hairpins on a sequencing array, two-state fit, raised by 9.35 °C to match UV melts; conditions: sodium 0.088 M
Reported Tm by item:
measurement.kind: Tm (°C)

sequence.chain | measurement.kind | readout.value
GATCCCACTGGGGATC ((((((....)))))) | Tm | 62.4
GTGATAACGAAAGTTCAC (((..(((....)))))) | Tm | 37.5
GGAACCGAAAGGTGGTCC ((((((....)))..))) | Tm | 35.4
GATAGCGGAAACGTTATC ((((.((....)).)))) | Tm | 42.3
GGTATGGGAAACTATACC (((((.(....).))))) | Tm | 41.4
GGGCACGAAAGTGGACCC ((((((....)))..))) | Tm | 53.6
GCGGACGCCCGC ((((....)))) | Tm | 56.1
GTTAATCGAAAGATGAAC (((.(((....))).))) | Tm | 38.3
GCTCTCGAAAGAGGCAGC ((((((....)))..))) | Tm | 42.3
GACTTCGCGAAAGCGGTC (((..(((....)))))) | Tm | 35.1
GATCTTGATAAGATC ((((((...)))))) | Tm | 43.6
GGCCAAGGAAACCTGGCC (((((.(....).))))) | Tm | 57.3
GAGATGAAAATCTC (((((....))))) | Tm | 44
GATCACCGTGTGATC ((((((...)))))) | Tm | 58.3
GAGTAGGGAAACCCACTC ((((.((....)).)))) | Tm | 39.6
GCATTGGGAAACTGATGC ((((..(....)..)))) | Tm | 38.8
GTACCTCGAAAGAGCTAC (((.(((....))).))) | Tm | 30.2
GGATGGGGAAACCTATCC ((((.((....)).)))) | Tm | 47.2
GCCCTGCGAAAGCGGAGC ((.(.((....)).).)) | Tm | 51.5
